meta.source: patent US11014911B2

# targetOrSystem: GSK3β (H350L) (Homo sapiens (Human))
# Sequence (P49841 whole entry, stated change not applied): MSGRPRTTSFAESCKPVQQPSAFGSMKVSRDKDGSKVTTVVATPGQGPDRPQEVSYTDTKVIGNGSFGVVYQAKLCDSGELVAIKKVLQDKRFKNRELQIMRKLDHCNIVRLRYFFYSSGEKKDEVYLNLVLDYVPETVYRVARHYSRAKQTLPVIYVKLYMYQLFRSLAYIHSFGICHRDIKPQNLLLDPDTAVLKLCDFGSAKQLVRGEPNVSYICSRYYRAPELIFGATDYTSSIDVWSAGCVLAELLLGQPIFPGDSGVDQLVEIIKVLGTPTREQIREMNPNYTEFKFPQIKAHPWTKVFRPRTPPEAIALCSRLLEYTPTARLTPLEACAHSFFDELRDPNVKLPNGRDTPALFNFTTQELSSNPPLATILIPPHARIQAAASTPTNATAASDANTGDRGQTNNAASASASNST
# reportedConditions: read-out: GSK3β Ki
attributeMeasured: pKi
Scale: negative log10 of molar concentration, which is what pKi denotes.

Sample records with pKi:
Cc1cc(CC(=O)Nc2cc([C@H]3CC[C@@H](OC(=O)N4CCC[C@@H]4C)C3)[nH]n2)no1 : 7.84
O=C(Cc1cc(F)cc(F)c1)Nc1cc([C@H]2CC[C@@H](OC(=O)NCC(F)F)C2)[nH]n1 : 7.54
C[C@H]1[C@H](O)CN1C(=O)O[C@@H]1CC[C@H](c2cc(NC(=O)Cc3cc(F)cc(F)c3)n[nH]2)C1 : 8.14

Note: attention shifts to another entry.
In: Enter recorded pKi with GSK3β (H350L) (Homo sapiens (Human)) for CCCNC(=O)O[C@H]1CC[C@@H](c2cc(NC(=O)Cc3cnco3)n[nH]2)C1 here.
Out: 7.61
